Hello, the source for this data is patent US20250177396A1, in case you need it.

- target.system: PLK4 (Homo sapiens)
- Sequence (O00444 whole entry): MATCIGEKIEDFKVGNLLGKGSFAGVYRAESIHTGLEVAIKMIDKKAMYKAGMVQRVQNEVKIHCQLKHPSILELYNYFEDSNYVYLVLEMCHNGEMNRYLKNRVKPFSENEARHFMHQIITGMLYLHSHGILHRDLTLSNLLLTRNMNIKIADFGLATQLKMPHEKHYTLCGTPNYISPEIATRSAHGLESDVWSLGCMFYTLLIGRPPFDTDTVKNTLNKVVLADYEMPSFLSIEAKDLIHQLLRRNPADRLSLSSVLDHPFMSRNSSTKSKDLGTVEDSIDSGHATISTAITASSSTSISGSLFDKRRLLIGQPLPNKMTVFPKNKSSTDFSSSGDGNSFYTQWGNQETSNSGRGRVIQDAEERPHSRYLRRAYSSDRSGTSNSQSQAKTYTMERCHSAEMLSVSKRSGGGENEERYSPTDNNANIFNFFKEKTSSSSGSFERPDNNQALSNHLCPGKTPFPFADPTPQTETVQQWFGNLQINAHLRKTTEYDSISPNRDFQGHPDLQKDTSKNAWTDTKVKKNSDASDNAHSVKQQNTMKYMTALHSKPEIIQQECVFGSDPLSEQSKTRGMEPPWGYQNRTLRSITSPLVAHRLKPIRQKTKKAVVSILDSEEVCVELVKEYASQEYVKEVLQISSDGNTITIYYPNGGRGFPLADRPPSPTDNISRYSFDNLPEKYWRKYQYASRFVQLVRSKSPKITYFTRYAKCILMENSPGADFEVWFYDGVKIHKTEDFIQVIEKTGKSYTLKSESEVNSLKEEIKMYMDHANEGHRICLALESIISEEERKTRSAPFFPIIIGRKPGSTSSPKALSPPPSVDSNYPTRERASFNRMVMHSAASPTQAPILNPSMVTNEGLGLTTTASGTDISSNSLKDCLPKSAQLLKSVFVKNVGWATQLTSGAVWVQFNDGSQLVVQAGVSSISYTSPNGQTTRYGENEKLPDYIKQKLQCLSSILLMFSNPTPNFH
- measurement.protocol: PLK4 NanoBRET target engagement assay
- test.context: HEK293 T cells transfected with PLK4 NanoLuc fusion vector; K-5 tracer; 2 hrs incubation
recorded.metric: IC50 (µM)

I. COc1c(Nc2cc(C)[nH]n2)nc(N(C)c2ccc(S(=O)(=O)C3CC3)cc2F)nc1-c1cnn(C)c1 [Compound 7]
II. Cc1cc(Nc2nc(N(C)c3c(F)cc(C4(C(N)=O)CC4)cc3F)nc(-c3cn(C)cn3)c2C2CC2)n[nH]1 [Compound 358]
III. Cc1cc(Nc2nc(N(C)c3c(F)cc(S(C)(=O)=O)cc3F)nc(-c3cn(C(C)C)cn3)c2C2CC2)n[nH]1 [Compound 137]
IV. COc1c(Nc2cc(C)[nH]n2)nc(N(CCN(C)C)c2ccc(S(C)(=O)=O)cc2F)nc1-c1cnn(C)c1 [Compound 77]
Ascending by IC50, please. Sort the labels as requested; that list is your answer.
III, II, I, IV
